test system: Variola Major, Yamada; assay type: cell-based; conditions: Table 4; Vero cells; average of 3 determinations
EXPERIMENTAL_READOUT: EC50 (µM)

INSERT INTO measurements (compound, data_value) VALUES
  ('CCCCCCCCCCCCCCCCOCCCOP(=O)(O)CO[C@H](CO)Cn1ccc(N)nc1=O [HDP-CDV]', 0.0015);

###

system: CEM; experiment: Cytotoxicity in CEM cells; details: read-out: CEM, CC50; Table 1; rapidly dividing cells
EXPERIMENTAL_READOUT: CC50

INSERT INTO assay_data (compound, study_target, experimental_readout, data_value) VALUES
  ('Nc1ccn(C[C@H]2COP(=O)(O)CO2)c(=O)n1 [cCDV, cyclic cidofovir]', 'CEM', 'CC50', '> 1000 µM'),
  ('Nc1ccn(C[C@@H](CO)OCP(=O)(O)O)c(=O)n1 [CDV, cidofovir]', 'CEM', 'CC50', '857 µM'),
  ('CCCCCCCCCCCCCCCCOCCCOP1(=O)COC(Cn2ccc(N)nc2=O)CO1 (stereo not drawn) [HDP-cCDV, 1-O-hexadecylpropanediol-3-cyclic CDV]', 'CEM', 'CC50', '30 µM');
